# Tested on: HPPD polypeptides
# ASSAY EXPLANATION: coupled HPPD activity assay: turnover and residual turnover in crude extracts
# Type: biochemical, Pseudomonas fluorescens
# REPORTED CONDITIONS: presence of 100 μM Cmpd. 1; high substrate concentration; changes in absorbance (OD) at 320 nm
ASSAY ENDPOINT: Residual turnover

>  <MOLECULE>
32 (protein, mutant HPPD polypeptide) MADLYENPMGLMGFEFIEFASPTPGTLEPIFEIMGFTKVATHRSKNVHLYRQGEINLILNNEPNSIASYFAAEHGPSVCGMAFRVKDSQKAYNRALELGAQPIHIDTGPMELNLPAIKGIGGAPLYLIDRFGEGSSIYDIDFVYLEGVERNPVGAGLKVIDHLTHNVYRGRMVYWANFYEKLFNFREARYFDIKGEYTGLTSKAMSAPDGMIRIPLNEESSKGAGQIEEFLMQFNGEGIQHVAFLTDDLVKTWDALKKIGMRFMTAPPDTYYEMLEGRLPDHGEPVDQLQARGILLDGSSVEGDKRLLLQIFSETLMGPVFFEFIQRKGDDGFGPHSFKVLFESVERDQVRRGVLTAD

>  <ASSAY ENDPOINT>
Residual turnover

>  <MEAS VALUE>
0.128

$$$$
